Target: AIK (Homo sapiens)
Sequence (O14965 whole entry): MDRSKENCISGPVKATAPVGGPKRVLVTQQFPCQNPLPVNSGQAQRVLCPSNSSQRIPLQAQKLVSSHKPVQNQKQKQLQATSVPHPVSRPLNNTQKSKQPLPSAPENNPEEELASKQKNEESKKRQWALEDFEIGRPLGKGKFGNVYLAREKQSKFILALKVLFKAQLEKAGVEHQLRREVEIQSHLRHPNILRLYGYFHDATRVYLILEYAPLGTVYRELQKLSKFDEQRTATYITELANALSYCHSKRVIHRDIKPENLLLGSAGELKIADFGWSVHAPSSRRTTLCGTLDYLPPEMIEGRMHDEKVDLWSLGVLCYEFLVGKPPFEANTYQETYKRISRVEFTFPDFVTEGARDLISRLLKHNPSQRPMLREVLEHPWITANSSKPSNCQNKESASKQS

[
  {
    "smilesStructure": "Cc1cc(-c2c(O)[nH]c3ccccc23)nc(N)n1",
    "IC50": "< 100 µM"
  }
]
